Origin of measurements: patent US20230124361A1

testedTarget: STING (Homo sapiens, UniProt Q86WV6, G230A/H232R/R293Q/R71H)
Sequence (Q86WV6 whole entry R71H/G230A/H232R/R293Q): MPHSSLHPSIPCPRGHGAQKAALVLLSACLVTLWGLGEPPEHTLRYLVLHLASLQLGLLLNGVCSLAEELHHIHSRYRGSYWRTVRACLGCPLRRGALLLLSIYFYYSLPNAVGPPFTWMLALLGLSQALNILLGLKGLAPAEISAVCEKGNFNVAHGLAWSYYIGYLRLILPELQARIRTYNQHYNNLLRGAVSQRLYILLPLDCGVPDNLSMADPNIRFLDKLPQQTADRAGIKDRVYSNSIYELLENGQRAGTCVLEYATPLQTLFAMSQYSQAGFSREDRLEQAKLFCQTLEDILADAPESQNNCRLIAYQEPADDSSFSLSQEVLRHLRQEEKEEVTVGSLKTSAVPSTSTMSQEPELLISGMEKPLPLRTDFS
experiment: Reporter gene expression assay in THP1-Dual cells (IRF pathway Lucia luciferase, 2',3'-cGAMP stimulation)
testParameters: 10 min preincubation, 5 μM 2',3'-cGAMP, 20 hr, IRF reporter QUANTI-Luc, read-out: THP-1 (HAQ) Activity
Listing: IC50 of selected compounds
testReadout: IC50

INSERT INTO results (compound, testedtarget, assayvalue) VALUES
  ('O=C(Nc1ccc2c(c1)N(Cc1ccccc1)C(CC(O)CO)CO2)Nc1ccc2cc[nH]c2c1 (centres unmarked)', 'STING (Homo sapiens, UniProt Q86WV6, G230A/H232R/R293Q/R71H)', '1000 to 10000 nM'),
  ('O=C(Nc1ccc2c(c1)N(C(CO)c1ccccc1)CCO2)Nc1ccc2cc[nH]c2c1 (centres unmarked)', 'STING (Homo sapiens, UniProt Q86WV6, G230A/H232R/R293Q/R71H)', '1000 to 10000 nM'),
  ('O=C(Nc1ccc2c(c1)OCC(=O)N2CC1COc2ccccc2O1)Nc1ccc2cc[nH]c2c1 (centres unmarked)', 'STING (Homo sapiens, UniProt Q86WV6, G230A/H232R/R293Q/R71H)', '≤ 1000 nM'),
  ('O=C(Nc1ccc2c(c1)OCC(=O)N2Cc1ccc(-n2cncn2)cc1)Nc1ccc2cc[nH]c2c1', 'STING (Homo sapiens, UniProt Q86WV6, G230A/H232R/R293Q/R71H)', '> 10000 nM'),
  ('O=C1CSc2ccc(-c3n[nH]c(-c4ccccc4)n3)cc2N1Cc1c(F)cccc1Cl', 'STING (Homo sapiens, UniProt Q86WV6, G230A/H232R/R293Q/R71H)', '1000 to 10000 nM'),
  ('NCC1COc2cc(NC(=O)Nc3ccc4cc[nH]c4c3)ccc2N1Cc1ccccc1 (centres unmarked)', 'STING (Homo sapiens, UniProt Q86WV6, G230A/H232R/R293Q/R71H)', '1000 to 10000 nM'),
  ('O=C(Nc1ccc2c(c1)SCC(=O)N2Cc1c(F)cccc1Cl)Nc1ccc2cc[nH]c2c1', 'STING (Homo sapiens, UniProt Q86WV6, G230A/H232R/R293Q/R71H)', '≤ 1000 nM'),
  ('O=C(Nc1ccc2c(c1)OCC(=O)N2Cc1ccc(C(F)(F)F)nc1)Nc1ccc2cc[nH]c2c1', 'STING (Homo sapiens, UniProt Q86WV6, G230A/H232R/R293Q/R71H)', '≤ 1000 nM'),
  ('O=C(Nc1ccc2c(c1)OCC(=O)N2Cc1ccccc1)NC1CCC(c2ccccc2)CC1 (mixture of isomers)', 'STING (Homo sapiens, UniProt Q86WV6, G230A/H232R/R293Q/R71H)', '1000 to 10000 nM'),
  ('CN1CCSc2ccc(NC(=O)Nc3ccc4cc[nH]c4c3)cc21', 'STING (Homo sapiens, UniProt Q86WV6, G230A/H232R/R293Q/R71H)', '> 10000 nM'),
  ('Nc1cccc(CN2C(=O)CSc3ccc(NC(=O)Nc4ccc5cc[nH]c5c4)cc32)c1', 'STING (Homo sapiens, UniProt Q86WV6, G230A/H232R/R293Q/R71H)', '> 10000 nM'),
  ('O=C1CSc2ccc(-c3ncc(-c4ccccc4)[nH]3)cc2N1Cc1c(F)cccc1Cl', 'STING (Homo sapiens, UniProt Q86WV6, G230A/H232R/R293Q/R71H)', '1000 to 10000 nM'),
  ('O=C(Nc1ccc2c(c1)N(Cc1ccccc1)C(=O)CS2)Nc1c[nH]c2ccccc12', 'STING (Homo sapiens, UniProt Q86WV6, G230A/H232R/R293Q/R71H)', '≤ 1000 nM'),
  ('O=C(Nc1ccc(F)cc1)Nc1ccc2c(c1)N(Cc1ccccc1)C(=O)CS2', 'STING (Homo sapiens, UniProt Q86WV6, G230A/H232R/R293Q/R71H)', '1000 to 10000 nM'),
  ('O=C(Nc1ccc2c(c1)OCC(=O)N2Cc1ccc2nsnc2c1)Nc1ccc2cc[nH]c2c1', 'STING (Homo sapiens, UniProt Q86WV6, G230A/H232R/R293Q/R71H)', '1000 to 10000 nM'),
  ('O=C(Nc1ccc2c(c1)N(c1ccccc1)CCS2)Nc1ccc2cc[nH]c2c1', 'STING (Homo sapiens, UniProt Q86WV6, G230A/H232R/R293Q/R71H)', '≤ 1000 nM'),
  ('O=C(Nc1ccc2c(c1)OCC(=O)N2Cc1ccc[nH]c1=O)Nc1ccc2cc[nH]c2c1', 'STING (Homo sapiens, UniProt Q86WV6, G230A/H232R/R293Q/R71H)', '> 10000 nM');
